# Target Desc: Homotetrameric CNGA2 channels (Rattus norvegicus, UniProt Q00195)
# Sequence (Q00195 whole entry): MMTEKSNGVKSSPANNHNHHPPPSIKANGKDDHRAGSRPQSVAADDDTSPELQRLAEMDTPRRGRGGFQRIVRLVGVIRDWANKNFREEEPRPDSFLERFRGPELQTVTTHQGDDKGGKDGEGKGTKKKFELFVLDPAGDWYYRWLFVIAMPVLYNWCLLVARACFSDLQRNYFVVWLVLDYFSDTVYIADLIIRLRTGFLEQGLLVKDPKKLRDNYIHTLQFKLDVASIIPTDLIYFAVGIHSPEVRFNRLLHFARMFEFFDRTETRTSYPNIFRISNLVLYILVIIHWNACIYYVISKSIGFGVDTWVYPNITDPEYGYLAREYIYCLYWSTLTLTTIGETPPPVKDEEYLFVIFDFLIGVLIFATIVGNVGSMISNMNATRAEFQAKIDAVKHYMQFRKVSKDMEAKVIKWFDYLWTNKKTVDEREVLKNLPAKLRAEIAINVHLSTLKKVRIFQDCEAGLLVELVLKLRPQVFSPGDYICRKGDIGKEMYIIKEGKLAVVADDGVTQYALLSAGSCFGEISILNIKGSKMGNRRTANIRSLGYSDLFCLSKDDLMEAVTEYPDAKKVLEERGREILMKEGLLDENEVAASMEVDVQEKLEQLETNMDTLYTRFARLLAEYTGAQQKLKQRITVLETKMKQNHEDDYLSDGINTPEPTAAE
# Protocol Details: Patch-clamp activation of homotetrameric CNGA2 channels, inside-out patches of Xenopus oocytes
# Test Conditions: inside-out patches; concentration of half maximum activation
pEC50: −log10 of the molar value.
Classify by measured pEC50: fulfilled if it is equal to or exceeds 6, not fulfilled if it is smaller.

-- ask # bool: pEC50 of Nc1nc2c(ncn2[C@@H]2O[C@@H]3COP(=O)(O)O[C@H]3[C@H]2O)c(=O)[nH]1 [cGMP, reference compound] >= 6
-- reply not fulfilled

-- ask # bool: pEC50 of CC1(C)C2=C3C=C4C5=[N+](CCC4OC3CCN2c2ccc(CC(=O)NCCCCCc3ccc(Sc4nc6c(=O)[nH]c(N)nc6n4[C@@H]4O[C@@H]6COP(=O)(O)O[C@H]6[C@H]4O)cc3)cc21)c1ccc(S(=O)(=O)[O-])cc1C5(C)C (stereo partly shown) [Compound 10] >= 6
-- reply fulfilled

-- ask # bool: pEC50 of NCCCCCc1ccc(-c2nc3c(=O)[nH]c(N)nc3n2[C@@H]2O[C@@H]3COP(=O)(O)O[C@H]3[C@H]2O)cc1 [Compound 13] >= 6
-- reply not fulfilled

-- ask # bool: pEC50 of NCCCCCc1ccc(-c2nc3c(N)ncnc3n2[C@@H]2O[C@@H]3COP(=O)(O)O[C@H]3[C@H]2O)cc1 [Compound 12] >= 6
-- reply not fulfilled

-- ask # bool: pEC50 of NCCCCCc1ccc(Sc2nc3c(=O)[nH]c(N)nc3n2[C@@H]2O[C@@H]3COP(=O)(O)O[C@H]3[C@H]2O)cc1 [Compound 9] >= 6
-- reply fulfilled

-- ask # bool: pEC50 of NCCCCCc1ccc(Sc2nc3c(N)ncnc3n2[C@@H]2O[C@@H]3COP(=O)(O)O[C@H]3[C@H]2O)cc1 [Compound 6] >= 6
-- reply not fulfilled

-- ask # bool: pEC50 of CC1(C)C2=C3C=C4C5=[N+](CCC4OC3CCN2c2ccc(CC(=O)NCCCCCc3ccc(Sc4nc6c(N)ncnc6n4[C@@H]4O[C@@H]6COP(=O)(O)O[C@H]6[C@H]4O)cc3)cc21)c1ccc(S(=O)(=O)[O-])cc1C5(C)C (stereo partly shown) [Compound 7] >= 6
-- reply not fulfilled
